Each entry below carries its reported IC50.
Target: Cyclin-dependent kinase 2/G1/S-specific cyclin-D1 (Homo sapiens, UniProt P24385+P24941)

query: Please indicate IC50 recorded for CC(C)c1n[nH]c2c(NCc3ccc(-c4cnccn4)cc3)nc(SCCN)nc12
result: > 1 µM

query: Please indicate IC50 recorded for NCCSc1nc(NCc2ccc(-c3ccccn3)cc2)c2[nH]nc(C3CCC3)c2n1
result: 0.94 µM

Further cases:
query: Please indicate IC50 recorded for NCCSc1nc(NCc2ccc(-n3cccn3)cc2)c2[nH]nc(C3CCC3)c2n1
result: > 1 µM

query: Please indicate IC50 recorded for NCCSc1nc(NCc2ccc(-c3ccccn3)cc2)c2[nH]nc(C3CCCC3)c2n1
result: > 1 µM

query: Please indicate IC50 recorded for CC(O)CSc1nc(NCc2ccc(-n3cccn3)cc2)c2n[nH]c(C(C)C)c2n1 (stereo unspecified)
result: > 1 µM

query: Please indicate IC50 recorded for CC(C)c1n[nH]c2c(NCc3ccc(-n4ccnc4)cc3)nc(SCCN)nc12
result: > 1 µM

----------
Target: CDK12/Cyclin K (Homo sapiens, UniProt Q9NYV4)
Sequence (O75909 whole entry): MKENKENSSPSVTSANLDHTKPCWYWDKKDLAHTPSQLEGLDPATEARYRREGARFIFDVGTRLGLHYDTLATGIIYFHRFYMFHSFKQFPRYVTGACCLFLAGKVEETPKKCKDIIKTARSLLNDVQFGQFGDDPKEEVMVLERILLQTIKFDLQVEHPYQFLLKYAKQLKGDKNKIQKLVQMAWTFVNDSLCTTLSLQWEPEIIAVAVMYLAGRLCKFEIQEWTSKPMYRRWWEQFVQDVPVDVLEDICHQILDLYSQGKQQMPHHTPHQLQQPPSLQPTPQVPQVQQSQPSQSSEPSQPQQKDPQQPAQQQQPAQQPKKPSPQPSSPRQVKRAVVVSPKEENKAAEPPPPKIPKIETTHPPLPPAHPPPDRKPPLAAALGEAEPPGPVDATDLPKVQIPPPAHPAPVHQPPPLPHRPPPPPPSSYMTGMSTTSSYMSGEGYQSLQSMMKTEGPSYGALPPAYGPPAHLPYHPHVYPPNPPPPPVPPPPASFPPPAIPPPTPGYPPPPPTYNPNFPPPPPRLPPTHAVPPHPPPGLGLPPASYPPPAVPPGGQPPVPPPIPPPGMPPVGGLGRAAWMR
Sequence (Q9NYV4 whole entry): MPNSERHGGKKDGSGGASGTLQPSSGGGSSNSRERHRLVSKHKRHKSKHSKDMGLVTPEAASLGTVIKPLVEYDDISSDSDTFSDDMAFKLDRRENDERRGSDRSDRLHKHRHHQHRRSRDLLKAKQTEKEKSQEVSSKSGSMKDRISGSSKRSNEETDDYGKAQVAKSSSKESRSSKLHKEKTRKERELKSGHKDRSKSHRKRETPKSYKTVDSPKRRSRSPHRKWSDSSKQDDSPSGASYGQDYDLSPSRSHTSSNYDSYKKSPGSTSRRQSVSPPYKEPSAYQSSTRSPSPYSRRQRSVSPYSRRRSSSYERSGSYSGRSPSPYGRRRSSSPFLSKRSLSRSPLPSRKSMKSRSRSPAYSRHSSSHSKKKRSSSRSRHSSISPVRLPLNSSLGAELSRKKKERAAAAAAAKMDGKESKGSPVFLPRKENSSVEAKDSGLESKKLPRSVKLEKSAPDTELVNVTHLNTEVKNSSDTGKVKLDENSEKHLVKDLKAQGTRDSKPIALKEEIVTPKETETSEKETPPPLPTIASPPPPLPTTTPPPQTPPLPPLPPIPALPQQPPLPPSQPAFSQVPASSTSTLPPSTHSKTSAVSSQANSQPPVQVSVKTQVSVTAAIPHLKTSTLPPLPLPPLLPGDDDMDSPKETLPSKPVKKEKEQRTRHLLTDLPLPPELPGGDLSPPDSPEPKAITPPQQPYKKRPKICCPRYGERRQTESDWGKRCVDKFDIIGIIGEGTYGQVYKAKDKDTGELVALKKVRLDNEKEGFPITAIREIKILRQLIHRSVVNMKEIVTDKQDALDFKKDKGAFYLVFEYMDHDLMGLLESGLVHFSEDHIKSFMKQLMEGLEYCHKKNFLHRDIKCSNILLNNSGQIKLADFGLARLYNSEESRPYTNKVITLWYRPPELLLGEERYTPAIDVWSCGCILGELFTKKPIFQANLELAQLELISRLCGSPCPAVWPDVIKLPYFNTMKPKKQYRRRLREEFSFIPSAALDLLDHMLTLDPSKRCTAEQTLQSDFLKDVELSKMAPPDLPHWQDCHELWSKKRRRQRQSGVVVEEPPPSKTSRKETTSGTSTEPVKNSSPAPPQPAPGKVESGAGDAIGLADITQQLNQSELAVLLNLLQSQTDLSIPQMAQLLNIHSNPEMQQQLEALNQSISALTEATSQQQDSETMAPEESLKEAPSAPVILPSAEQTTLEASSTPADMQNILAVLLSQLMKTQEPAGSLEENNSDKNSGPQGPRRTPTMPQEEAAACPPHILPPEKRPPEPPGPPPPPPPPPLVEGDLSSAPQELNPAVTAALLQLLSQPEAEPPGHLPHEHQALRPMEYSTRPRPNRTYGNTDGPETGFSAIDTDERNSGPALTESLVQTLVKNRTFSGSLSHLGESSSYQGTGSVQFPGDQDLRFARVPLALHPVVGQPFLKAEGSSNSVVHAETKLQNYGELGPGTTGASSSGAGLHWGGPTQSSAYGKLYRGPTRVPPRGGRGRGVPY
Assay: Inhibition of GST-tagged human CDK12/Cyclin K expressed in Sf9 cells using RBER-IRStide peptide as substrate in presence of ATP and [gamma33-P] ATP by radioisotope filter binding assay
pIC50: −log10 of the molar value.
metric: pIC50

Take a look at these entries with their results.
query: Please indicate pIC50 recorded for CC(O)CSc1nc(NCc2ccc(-n3cccn3)cc2)c2n[nH]c(C(C)C)c2n1 (stereo unspecified)
result: 6.81

query: Please indicate pIC50 recorded for NCCSc1nc(NCc2ccc(-n3cccn3)cc2)c2[nH]nc(C3CCC3)c2n1
result: 7.19

query: Please indicate pIC50 recorded for CC(C)c1n[nH]c2c(NCc3ccc(-n4ccnc4)cc3)nc(SCCN)nc12
result: 7.14

(a) CC(C)c1n[nH]c2c(NCc3ccc(-c4cnccn4)cc3)nc(SCCN)nc12
(b) NCCSc1nc(NCc2ccc(-c3ccccn3)cc2)c2[nH]nc(C3CCCC3)c2n1
(c) NCCSc1nc(NCc2ccc(-c3ccccn3)cc2)c2[nH]nc(C3CCC3)c2n1
query: Your job: order these 3 records by pIC50, ascending. // list labels; follow requested order
result: b, a, c
(b: 6.52, a: 7.30, c: 7.54)

----------
Test: Antiproliferative activity against human Ri-1 cells assessed as cell growth inhibition measured after 72 hrs by resazurin dye based microplate reader analysis
Type: functional
Each entry below carries its reported GI50.
Value expressed in nM; do not type the unit.

Take a look at these entries with their results.
query: Please indicate GI50 recorded for NCCSc1nc(NCc2ccc(-c3ccccn3)cc2)c2[nH]nc(C3CCC3)c2n1
result: 23

query: Please indicate GI50 recorded for NCCSc1nc(NCc2ccc(-n3cccn3)cc2)c2[nH]nc(C3CCC3)c2n1
result: 54

query: Please indicate GI50 recorded for CC(O)CSc1nc(NCc2ccc(-n3cccn3)cc2)c2n[nH]c(C(C)C)c2n1 (configuration not stated)
result: 61

query: Please indicate GI50 recorded for NCCSc1nc(NCc2ccc(-c3ccccn3)cc2)c2[nH]nc(C3CCCC3)c2n1
result: 330

query: Please indicate GI50 recorded for CCc1cnn2c(NCc3ccc[n+]([O-])c3)cc(N3CCCC[C@H]3CCO)nc12 [DINACICLIB]
result: 15

Further cases:
query: Please indicate GI50 recorded for CC(C)c1n[nH]c2c(NCc3ccc(-n4ccnc4)cc3)nc(SCCN)nc12
result: 435

query: Please indicate GI50 recorded for CC(C)c1n[nH]c2c(NCc3ccc(-c4cnccn4)cc3)nc(SCCN)nc12
result: 54
